B1: NELF-E aptamer (parent)
chain: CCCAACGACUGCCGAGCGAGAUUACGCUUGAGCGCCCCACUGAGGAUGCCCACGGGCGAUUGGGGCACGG

# Variants of: B1
# protocol: HiTS-RAP
# testSettings: with NELF-E (Drosophila)
Kd for assorted variants
recordedMetric: Kd (nM)

C6G G16U : 6.81
A4U A67G : 5.89
U29G C51A : 8.11
C13G U60G : 5.12
A4G U23G : 5.42
C13U U29G : 5.14
C12G C13G : 5.01
C13G C35U : 14.4
U23G C51G : 5.33
U10G A21G : 5.45
A46G G54A : 129
U29C A43U : 43.4
A5U C50U : 15
G42A : 49.4
U29G G45U : 5.6
G45C : 39.5
U29G : 4.93
C13G C17G : 4.68
C6G A52U : 16.1
U47A A67U : 10.5
C13U C37U : 7.46
A4G G30U : 5.76

Every entry's value here was drawn from the RNAGym collection of RNA variant scans (doi:10.1038/nmeth.2970).
